Molecular target: Peptide 1593 (…) (Mycobacterium tuberculosis)
Test: ELISA, NNK clone supernatant on coated peptide (22 hits)
OD450 nm values, listed per item
metric name: OD450 nm (OD450)

binder	recorded measurement
65D3 chimeric Fab, NNK library L20 mutant S to H (VL S57H) (Fab, V domains shown) VH: QSLEESGGRLVTPGGSLTLTCTVSGFSLSTHDISWVRQAPGKGLEWIGVIARRGSTYYASWAKGRFTISKTSTTVDLKITSPTIEDTATYFCAREEFDFWGQGTLVTVSS VL: AVLTQTASPVSAAVGGTVTISCQSSQSVYNNKELSWFQQKPGQPPKLLISYASTLAHGVPSRFKGSGSGTQFTLTISDLECDDAATYYCLGGYASTIDMWAFGGGTEVVVK	0.596
65D3 chimeric Fab, NNK library L3 mutant S to H (VL S25H) (Fab, V domains shown) VH: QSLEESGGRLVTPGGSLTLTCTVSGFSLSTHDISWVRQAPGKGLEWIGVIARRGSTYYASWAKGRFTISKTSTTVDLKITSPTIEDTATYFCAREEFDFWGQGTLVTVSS VL: AVLTQTASPVSAAVGGTVTISCQSHQSVYNNKELSWFQQKPGQPPKLLISYASTLASGVPSRFKGSGSGTQFTLTISDLECDDAATYYCLGGYASTIDMWAFGGGTEVVVK	0.95
65D3 chimeric Fab, NNK library L5 mutant S to M (VL S27M) (Fab, V domains shown) VH: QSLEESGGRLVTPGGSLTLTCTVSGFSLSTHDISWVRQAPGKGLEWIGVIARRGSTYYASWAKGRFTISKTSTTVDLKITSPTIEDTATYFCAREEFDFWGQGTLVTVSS VL: AVLTQTASPVSAAVGGTVTISCQSSQMVYNNKELSWFQQKPGQPPKLLISYASTLASGVPSRFKGSGSGTQFTLTISDLECDDAATYYCLGGYASTIDMWAFGGGTEVVVK	1.14

Values from patent US12649778
